# tgt: Sigma 2 receptor
# assay.procedure: Binding affinity was evaluated using [3H]-DTG binding to sigma-2 receptor from rat liver
IC50 listing for selected compounds.

Entry CC1CN(CCCn2c3ccccc3c3ccccc32)CC(C)N1CCCCCCN=C=S (stereo not given) — recorded IC50 = 211 nM

// sample C[C@@H]1CN(CCCn2c3ccccc3c3ccccc32)C[C@H](C)N1 , its IC50 was 386 nM

Just so you know, measured IC50 for CC1CN(CCCn2c3ccccc3c3ccccc32)CC(C)N1CCN=C=S (stereo not given) came out at 1440 nM

Briefly, IC50 measured for CC1CN(CCCn2c3ccccc3c3ccccc32)CC(C)N1CCCN=C=S (stereo not given) : 877 nM

With those in mind, consider the next compound.
Sure, the documented IC50 for C[C@H]1CN(CCCn2c3ccccc3c3ccccc32)C[C@H](C)N1C is 294 nM

###

# tgt: Sodium-dependent dopamine transporter (Rattus norvegicus)
# Sequence (P23977 whole entry): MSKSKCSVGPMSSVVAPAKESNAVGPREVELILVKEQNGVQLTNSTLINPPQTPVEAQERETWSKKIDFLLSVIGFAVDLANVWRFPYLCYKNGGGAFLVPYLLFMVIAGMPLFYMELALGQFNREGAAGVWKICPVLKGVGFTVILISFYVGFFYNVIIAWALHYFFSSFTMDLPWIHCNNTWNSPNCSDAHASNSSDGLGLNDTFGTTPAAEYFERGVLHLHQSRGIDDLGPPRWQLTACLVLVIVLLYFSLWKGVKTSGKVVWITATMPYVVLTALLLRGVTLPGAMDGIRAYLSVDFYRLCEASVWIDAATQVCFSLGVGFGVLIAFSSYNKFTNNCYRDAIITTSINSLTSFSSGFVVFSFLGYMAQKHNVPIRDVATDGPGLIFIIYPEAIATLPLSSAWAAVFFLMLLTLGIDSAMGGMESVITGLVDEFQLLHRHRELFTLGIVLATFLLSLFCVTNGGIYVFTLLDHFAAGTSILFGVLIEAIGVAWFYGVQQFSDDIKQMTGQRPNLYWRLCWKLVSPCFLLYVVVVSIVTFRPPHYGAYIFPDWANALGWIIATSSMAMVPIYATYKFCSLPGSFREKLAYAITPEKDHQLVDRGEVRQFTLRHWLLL
quantity.name: IC50
Form field: result (number plus unit)

Consider the worked cases shown below.
Per the reported Sodium-dependent dopamine transporter (Rattus norvegicus) data, C[C@H]1CN(CCCn2c3ccccc3c3ccccc32)C[C@H](C)N1C has IC50 of 244 nM

Reading of IC50 for CC1CN(CCCn2c3ccccc3c3ccccc32)CC(C)N1CCN=C=S (centres undefined) with Sodium-dependent dopamine transporter (Rattus norvegicus): 1250 nM

Bench note, Sodium-dependent dopamine transporter (Rattus norvegicus): entry CC1CN(CCCn2c3ccccc3c3ccccc32)CC(C)N1CCCN=C=S (centres undefined) , its IC50 = 523 nM

Now consider the entry below.
# lookup: CC1CN(CCCn2c3ccccc3c3cc(N=C=S)ccc32)CC(C)N1C (centres undefined) on Sodium-dependent dopamine transporter (Rattus norvegicus), IC50 = 1330 nM

Reference source for all entries: ChEMBL document CHEMBL1130315
